target: Phospholipase A2, membrane associated (Homo sapiens); test: Inhibitory activity against synovial human recombinant phospholipase (hr-PLA2) at 100 uM concentration
assay metric: inhibition (%)

Some solved cases for reference:
>>> df
                               given_smiles                       experimental_target  value_measured
0  COc1ccc(-c2cc(=O)c3ccc(OC)c(OC)c3o2)cc1OC  Phospholipase A2, membrane associated (Homo sapiens)            46.2
1   COc1ccc(/C=C/C(=O)c2ccc(C)c(C)c2O)cc1OC  Phospholipase A2, membrane associated (Homo sapiens)            27.5

I: COc1ccc(-c2cc(=O)c3ccc(C)c(C)c3o2)cc1OC
II: COc1ccc(/C=C/C(=O)c2ccc(OC)c(OC)c2O)cc1OC
Prompt: Between the entries labelled I and II , which has a larger inhibition value on record? The response must carry the label of the picked entry.
Completion: II

---

species on record: Rattus norvegicus; assay: IC50 value was evaluated by measuring the 50% inhibition of peroxyl scavenging activity.; type: functional
assay metric: IC50 (µM)
Lab book: enter the figure in µM, no units written.

Prompt: Suppose we examine the compound CCCOC(=O)c1cc(O)c(O)c(O)c1 [PROPYL GALLATE] ; what IC50 value has been reported?
Completion: 33.9

---

organism: Homo sapiens; experiment: Inhibitory activity against TXB2 generation at 100 uM concentration; type: functional
Listing of recorded Inhibition by entry.
Write down the numeric answer in % and omit the unit.

                                   compound  value_measured
0  COc1ccc2c(c1)c(CC(=O)O)c(C)n2C(=O)c1ccc(Cl)cc1 [INDOMETHACIN]             100
1   COc1ccc(/C=C/C(=O)c2ccc(C)c(C)c2O)cc1OC            28.1
2  COc1ccc(-c2cc(=O)c3ccc(OC)c(OC)c3o2)cc1OC            38.6

Prompt: I am curious: what Inhibition value has been reported for COc1ccc(-c2cc(=O)c3ccc(C)c(C)c3o2)cc1OC ?
Completion: 37.4

Prompt: Returns the measured Inhibition for the input compound. Input: COc1ccc(/C=C/C(=O)c2ccc(OC)c(OC)c2O)cc1OC
Completion: 77.2

---

organism: Rattus norvegicus; test: Inhibition of microsomal lipid peroxidation induced by [Fe(3+)]-ADP/NADPH in rat liver; type: functional
assay metric: pIC50
FYI, pIC50 means -log10 of a concentration in mol per litre.

Prompt: For the compound shown here, CCCOC(=O)c1cc(O)c(O)c(O)c1 [PROPYL GALLATE] , give the reported pIC50.
Completion: 5.10
